assay: qHTS assay for small molecules that induce genotoxicity in human embryonic kidney cells expressing luciferase-tagged ATAD5 - cell viability (AID 651634); details: HEK293T ATAD5-luc cells viability, CellTiter-Fluor, 15.5 h; series mostly up to 83.3 µM; note: nearly all actives have a fitted effect of over 25% in size
Records with an inconclusive call do not appear. Calls of active or inactive are those of the source. Calls come from the whole dose curve.
MEASUREMENT_TYPE: outcome

Please review the following examples before continuing.
[[record]]
molecule = "O=c1n(CC2CO2)c(=O)n(CC2CO2)c(=O)n1CC1CO1 (stereo not given)"
measured_value = "inactive"

[[record]]
molecule = "CC1COc2c(N3CCN(C)CC3)c(F)cc3c(=O)c(C(=O)O)cn1c23 (stereo not given)"
measured_value = "inactive"

[[record]]
molecule = "Cc1cccc2n[nH]nc12"
measured_value = "inactive"

[[record]]
molecule = "CCOc1ccc2c(c1)C(C)=CC(C)(C)N2"
measured_value = "inactive"

[[record]]
molecule = "Cc1ccnc2c1NC(=O)c1cccnc1N2C1CC1"
measured_value = "inactive"

[[record]]
molecule = "CCCCCCCCCCCC[N+](C)(C)C"
measured_value = "inactive"

[[record]]
molecule = "C=CC(=O)OCCCCCCCC"
measured_value = "inactive"

[[record]]
molecule = "Cc1scc2c1N(C(=O)CN1CCN(C)CC1)c1ccccc1NC2=O"
measured_value = "inactive"

[[record]]
molecule = "CCN(CC)CCOc1ccc(/C(=C(\\Cl)c2ccccc2)c2ccccc2)cc1"
measured_value = "inactive"

[[record]]
molecule = "c1cnc2cc3c(cc2n1)C1CNCC3C1"
measured_value = "inactive"


For the molecule `O=C1CC2(CCCC2)CC(=O)N1CCCCN1CCN(c2ncccn2)CC1` , what outcome is on record?
inactive

====

experiment: qHTS assay to identify small molecule antagonists of the farnesoid-X-receptor (FXR) signaling pathway - cell viability counter screen (AID 743221); conditions: FXR-bla HEK293T viability, CellTiter-Glo luminescence, 16 h; series mostly up to 62.6 µM; note: nearly all actives have a fitted effect of over 50% in size; note: potency is the fitted concentration of half-maximal effect
Records with an inconclusive call do not appear. Activity calls are given as the source filed them. Calls follow the shape of the dose curve; as a rule, active = well fitted cell-killing curve with a large enough effect in the repeat runs (not every such curve was filed as active); inconclusive = weak or mixed curves, or effect the other way; inactive = no such curve, though single readings can be large or run the other way.
MEASUREMENT_TYPE: Potency

Please review the following examples before continuing.
[[record]]
compound = "O=C(O)c1cn(-c2ccc(F)cc2)c2cc(N3CCNCC3)c(F)cc2c1=O"
measurement_type = "Potency"
measured_value = "inactive"

[[record]]
compound = "O=C(O)c1cccc(C(=O)O)c1"
measurement_type = "Potency"
measured_value = "inactive"

[[record]]
compound = "c1ccc2cc3c(ccc4ccccc43)cc2c1"
measurement_type = "Potency"
measured_value = "inactive"

[[record]]
compound = "NCCO"
measurement_type = "Potency"
measured_value = "inactive"


For the compound CCN(CC)C(=O)Nc1ccc(OCC(O)CNC(C)(C)C)c(C(C)=O)c1 (configuration not stated) , what Potency is on record?
inactive

For the compound `CCn1c2ccccc2c2cc(N)ccc21` , what Potency is on record?
inactive

For the compound COc1ccc(CCN(C)CCCC(C#N)(c2ccc(OC)c(OC)c2)C(C)C)cc1OC (configuration not stated) , what Potency is on record?
inactive

For the compound `Oc1c(Cl)cc(Cl)c(Cl)c1Cc1c(O)c(Cl)cc(Cl)c1Cl` , what Potency is on record?
48.9 µM (active)

For the compound `Nc1nc2ccccc2[nH]1` , what Potency is on record?
inactive

For the compound `CC(=O)N[C@@H](CS)C(=O)O` , what Potency is on record?
inactive
